Here, each record is paired with measured EMax, OVCAR 5 cells (cAMP) data.
# tgt: T1, RXFP1 receptor (UniProt Q9HBX9 1-757, limits assumed)
# T1 sequence (looked up): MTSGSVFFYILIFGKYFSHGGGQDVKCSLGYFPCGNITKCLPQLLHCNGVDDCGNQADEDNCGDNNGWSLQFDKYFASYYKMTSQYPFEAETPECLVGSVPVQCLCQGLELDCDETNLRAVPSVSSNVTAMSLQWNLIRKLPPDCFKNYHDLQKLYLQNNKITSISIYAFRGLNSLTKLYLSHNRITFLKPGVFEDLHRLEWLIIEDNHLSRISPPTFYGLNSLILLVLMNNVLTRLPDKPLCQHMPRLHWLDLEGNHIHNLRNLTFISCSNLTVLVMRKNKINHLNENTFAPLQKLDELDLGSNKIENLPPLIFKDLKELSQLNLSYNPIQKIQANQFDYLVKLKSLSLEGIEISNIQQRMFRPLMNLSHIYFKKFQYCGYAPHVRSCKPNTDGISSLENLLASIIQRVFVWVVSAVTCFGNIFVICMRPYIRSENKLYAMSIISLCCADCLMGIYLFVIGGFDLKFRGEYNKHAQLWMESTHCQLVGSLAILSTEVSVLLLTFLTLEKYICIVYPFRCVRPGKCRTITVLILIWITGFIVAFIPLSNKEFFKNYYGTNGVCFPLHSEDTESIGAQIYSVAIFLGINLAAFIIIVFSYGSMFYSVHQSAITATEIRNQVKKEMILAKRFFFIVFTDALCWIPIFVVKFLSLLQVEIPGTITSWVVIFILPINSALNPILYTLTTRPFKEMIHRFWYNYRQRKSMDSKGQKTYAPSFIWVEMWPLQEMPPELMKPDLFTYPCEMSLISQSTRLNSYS
# assay.summary: cell-based or functional assay
*1 amine or outer side, *2 acyl side, *3 side chain or, on linkers, in order; H or OH if unused. Primed or numbered codes have the meaning given here. Side-chain parts run from the residue outwards. [ ]: non-standard residue; d: D form. The star is where a group is joined. PEG12 = NCCOCCOCCOCCOCCOCCOCCOCCOCCOCCOCCOCCOCCC(=O)O; γGlu = O=C(O)[C@H](CCC(=O)[*:2])N[*:1]; Stearoyl = CCCCCCCCCCCCCCCCCC(=O)*; Palmitoyl = CCCCCCCCCCCCCCCC(=O)*; αMeK = C[C@](N)(CCCCN)C(=O)O; Nle = CCCC[C@H](N)C(=O)O; PEG2′ = PEG2 spacer unit; Aib = CC(C)(N)C(=O)O
Number only, in %; omit the unit.

{"columns": ["binder", "EMax, OVCAR 5 cells (cAMP) [%]"],
 "data": [
  ["Ac-LEGREKVRAK(Ac)I[Aib][Aib]EG[Nle]STWXKRKK(Ac)[PEG12]K([γGlu-γGlu-γGlu-γGlu-Stearoyl])-NH2 (not fully specified (some residues); printed as Ac-L-E-G-R-E-K-V-R-A-K(Ac)-I-Aib-Aib-E-G-Nle-S-T-W-Mse-K-R-K-K(Ac)-PEG12-K(gE-gE-gE-gE-Stea)-NH2) [peptide of SEQ ID NO: 39]", 91]
]}

Qu. For the binder shown here, Ac-LEGREKVRAK(Ac)I[Aib][Aib]EG[Nle]STWS[αMeK]RKK(Ac)[PEG2′][PEG2′][PEG2′]K([γGlu-γGlu-γGlu-γGlu-Palmitoyl])-NH2 [peptide of SEQ ID NO: 17] , give the reported EMax, OVCAR 5 cells (cAMP).
Ans. 95
